systemUnderTest: human CDK4/cyclin D3 (Homo sapiens, UniProt P11802)
Construct: made in house; host or cells: insect cells co-infected with baculovirus vectors
Sequence (P11802 whole entry): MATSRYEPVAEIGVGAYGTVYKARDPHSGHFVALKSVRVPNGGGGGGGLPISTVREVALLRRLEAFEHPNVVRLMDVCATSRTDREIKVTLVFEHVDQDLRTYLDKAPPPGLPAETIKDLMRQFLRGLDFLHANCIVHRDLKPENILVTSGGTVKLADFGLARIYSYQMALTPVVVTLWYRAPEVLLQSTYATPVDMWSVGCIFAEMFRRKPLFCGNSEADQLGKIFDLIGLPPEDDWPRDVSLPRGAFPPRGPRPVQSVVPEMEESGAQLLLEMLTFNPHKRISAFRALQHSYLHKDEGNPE
Sequence (P30281 1-264 partner limits assumed): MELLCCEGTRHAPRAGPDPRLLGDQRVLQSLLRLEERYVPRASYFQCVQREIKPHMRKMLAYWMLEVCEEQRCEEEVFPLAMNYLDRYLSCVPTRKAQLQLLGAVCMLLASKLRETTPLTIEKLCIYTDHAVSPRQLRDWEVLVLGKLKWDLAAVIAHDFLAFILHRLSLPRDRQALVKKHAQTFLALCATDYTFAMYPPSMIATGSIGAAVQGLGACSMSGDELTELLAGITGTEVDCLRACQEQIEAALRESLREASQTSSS
assayMethodText: Inhibition of CDK4/cyclin D retinoblastoma kinase activity (Ki; % inhibition)
Type: biochemical
condition: at 0.03 μM
Entries and their CDK4 % Inhibition at 0.03 μM
Just the number in %, nothing appended.

{"compound": "Nc1nc(Nc2ccc(C(=O)NCCN3CCOCC3)cc2)sc1C(=O)c1c(F)cccc1F", "CDK4 % Inhibition at 0.03 μM [%]": 17}
{"compound": "Nc1nc(Nc2ccc(C(=O)NC3CCS(=O)(=O)C3)cc2)sc1C(=O)c1c(F)cccc1F (stereo not shown)", "CDK4 % Inhibition at 0.03 μM [%]": 23}
{"compound": "CC(C)CNC(=O)c1ccc(Nc2nc(N)c(C(=O)c3c(F)cccc3F)s2)cc1", "CDK4 % Inhibition at 0.03 μM [%]": 7}

compound Cc1ccc(CCNC(=O)c2ccc(Nc3nc(N)c(C(=O)c4c(F)cccc4F)s3)cc2)cc1 , CDK4 % Inhibition at 0.03 μM observed: 20

The compound identified as COC(=O)[C@H](C(C)C)N(C)C(=O)c1ccc(Nc2nc(N)c(C(=O)c3c(F)cccc3F)s2)cc1 registered its CDK4 % Inhibition at 0.03 μM at 6

* * *

Listed here: items and their measured HCT-116 % Inhibition at 0.25 μM.
Tested on: HCT-116 cell line
assayMethodText: Inhibition of cell growth, MTT tetrazolium salt assay
Type: cell-based
condition: HCT-116 cells, 0.25 μM compound
Please give a number only; it is taken to be in %.

Example cases with answers are listed next.
{"molecule": "COc1ccc(N2CCN(C(=O)c3ccc(Nc4nc(N)c(C(=O)c5c(F)cccc5F)s4)cc3)CC2)cc1 [Example G240]", "resultValue": 52}
{"molecule": "Nc1nc(Nc2ccc(C(=O)NCc3ccc(F)cc3Cl)cc2)sc1C(=O)c1c(F)cccc1F [Example G278]", "resultValue": 76}
{"molecule": "Nc1nc(Nc2ccc(C(=O)N(CCCCO)Cc3ccccc3)cc2)sc1C(=O)c1c(F)cccc1F [Example G351]", "resultValue": 62}
{"molecule": "COc1ccc(CCNC(=O)c2ccc(Nc3nc(N)c(C(=O)c4c(F)cccc4F)s3)cc2)cc1OC [Example G241]", "resultValue": 57}
{"molecule": "Cc1ccc([C@H](C)NC(=O)c2ccc(Nc3nc(N)c(C(=O)c4c(F)cccc4F)s3)cc2)cc1 [Example G245]", "resultValue": 55}

// sample CC(C)C[C@@H](CO)NC(=O)c1ccc(Nc2nc(N)c(C(=O)c3c(F)cccc3F)s2)cc1 [Example G333] , its HCT-116 % Inhibition at 0.25 μM was 51

// HCT-116 % Inhibition at 0.25 μM lookup, molecule = Nc1nc(Nc2ccc(C(=O)Nc3ccc(Nc4ccccc4)cc3)cc2)sc1C(=O)c1c(F)cccc1F [Example G305] , result: 81

* * *

systemUnderTest: CDK2/cyclin A (Homo sapiens)
Construct: made in house; host or cells: CDK2: insect cells (baculovirus); cyclin A: E. coli
assayMethodText: Inhibition of CDK2/cyclin A retinoblastoma kinase activity (Ki; % inhibition)
Assay type: biochemical
condition: 0.03 μM compound
Experimental: Cyclin-dependent kinase activity was measured by quantifying the enzyme-catalyzed, time-dependent incorporation of radioactive phosphate from [^32P]ATP or [^33P]ATP into a protein substrate. […] The phosphorylated substrate was then captured on a nitrocellulose or phosphocellulose membrane using a 96-well filtration manifold, and unincorporated radioactivity was removed by repeated washing with 0.85% phosphoric acid. Radioactivity was quantified by exposing the dried membranes to a phosphorimager. […]
CDK2 % Inhibition at 0.03 μM listing for selected molecules.
// units = %; emit number, no label

Use the examples below as a reference point.
{"molecule": "Cc1cc(C)cc(NC(=O)c2ccc(Nc3nc(N)c(C(=O)c4c(F)cccc4F)s3)cc2)c1 [Example G297]", "resultValue": "−3"}
{"molecule": "CCOC(CNC(=O)c1ccc(Nc2nc(N)c(C(=O)c3c(F)cccc3F)s2)cc1)OCC [Example G344]", "resultValue": 25}
{"molecule": "Nc1ccccc1CNC(=O)c1ccc(Nc2nc(N)c(C(=O)c3c(F)cccc3F)s2)cc1 [Example G384]", "resultValue": 45}
{"molecule": "CC[C@H](C)[C@@H](CO)NC(=O)c1ccc(Nc2nc(N)c(C(=O)c3c(F)cccc3F)s2)cc1 [Example G327]", "resultValue": "−7"}
{"molecule": "CC[C@H](NC(=O)c1ccc(Nc2nc(N)c(C(=O)c3c(F)cccc3F)s2)cc1)c1ccccc1 [Example G214]", "resultValue": 11}

For COc1ccc(N2CCN(C(=O)c3ccc(Nc4nc(N)c(C(=O)c5c(F)cccc5F)s4)cc3)CC2)cc1 [Example G240] the molecule record lists CDK2 % Inhibition at 0.03 μM as 11

Field CDK2 % Inhibition at 0.03 μM (entry Nc1nc(Nc2ccc(C(=O)NCCCCCO)cc2)sc1C(=O)c1c(F)cccc1F [Example G274] ) reads −4

CDK2 % Inhibition at 0.03 μM reading for C=CCNC(=O)c1ccc(Nc2nc(N)c(C(=O)c3c(F)cccc3F)s2)cc1 [Example G219] : 10

Source: patent US6720346B2
